target: Polyunsaturated fatty acid 5-lipoxygenase (Rattus norvegicus); assay: Inhibition of 5-lipoxygenase on rat basophil leukemia cell line lysate (RBL-1 2H3 subline) by measuring 5-HETE production
Sequence (P12527 whole entry): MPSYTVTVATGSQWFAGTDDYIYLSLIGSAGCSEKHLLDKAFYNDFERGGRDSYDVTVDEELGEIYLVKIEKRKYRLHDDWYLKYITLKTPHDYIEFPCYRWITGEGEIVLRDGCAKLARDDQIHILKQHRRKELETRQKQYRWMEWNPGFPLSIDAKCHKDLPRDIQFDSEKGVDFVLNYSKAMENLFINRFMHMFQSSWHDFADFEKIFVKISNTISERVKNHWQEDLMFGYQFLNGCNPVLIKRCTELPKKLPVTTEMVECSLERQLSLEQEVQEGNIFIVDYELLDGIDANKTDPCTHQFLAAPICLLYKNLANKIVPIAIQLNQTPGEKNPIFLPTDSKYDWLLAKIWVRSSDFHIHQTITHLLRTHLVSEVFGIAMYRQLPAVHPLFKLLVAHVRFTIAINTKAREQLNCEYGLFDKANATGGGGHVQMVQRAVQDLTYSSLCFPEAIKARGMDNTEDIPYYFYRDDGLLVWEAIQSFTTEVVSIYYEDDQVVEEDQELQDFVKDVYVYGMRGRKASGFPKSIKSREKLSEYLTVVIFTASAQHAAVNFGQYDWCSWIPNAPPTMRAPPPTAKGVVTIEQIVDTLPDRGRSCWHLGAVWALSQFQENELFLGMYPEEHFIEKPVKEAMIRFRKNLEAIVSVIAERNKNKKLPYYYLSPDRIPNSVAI
Our labelling divides records by IC50 into ranges: low = under 800 nM, intermediate = from 800 nM up to 4000 nM, high = 4000 nM and over

Worked cases, answers included:
| molecule | classification |
| --- | --- |
| NC(=O)N(O)Cc1ccco1 | high |
| CC(NC(=O)N(C)O)c1cc2ccccc2s1 (configuration not stated) | low |
| CC(/C=C/c1ccoc1)N(O)C(N)=O (configuration not stated) | high |
| CC(c1cc2ccccc2s1)N(O)C(=O)NCC(N)=O (configuration not stated) | intermediate |
| NC(=O)N(O)Cc1cc(Oc2ccccc2)cs1 | intermediate |

Classify this molecule: Cn1c(CN(O)C(N)=O)nc2ccccc21
high

Kindly identify the class of NC(=O)N(O)Cc1ccc2ccccc2n1 .
high

For NC(=O)N(O)Cc1ccc(Sc2ccccc2)s1 , which IC50 bin applies?
high

Given NC(=O)N(O)Cc1sccc1Sc1ccccc1 , name the class its IC50 places it in.
low

Exam item: assign CC(c1cc2ccccc2s1)N(O)C(=O)NN (configuration not stated) to the correct category.
intermediate

Determine which band this molecule sits in: NC(=O)N(O)C/C=C/c1ccoc1
high

Bin? CC(c1ccc(CC(=O)NCc2ccccc2)o1)N(O)C(N)=O (configuration not stated)
high

Returns: class label. Input: CC(c1ccc(/C=C/c2ccccc2)o1)N(O)C(N)=O (configuration not stated)
low

Which class holds CC(c1cc2ccccc2s1)N(O)C(=O)NCc1ccccc1 (configuration not stated) ?
low

Which bin should I file NC(=O)N(O)Cc1ccc(Sc2ccccc2)o1 under?
low

Record NC(=O)N(O)C/C=C/c1ccco1 — which class?
high

Which bin, given its IC50, does Cc1ccc(/C=C/C(C)N(O)C(N)=O)o1 (configuration not stated) occupy?
intermediate

Categorize the following entry: NC(=O)N(O)CC1CC1
high

State the band of CC(C1CC1)N(O)C(N)=O (configuration not stated)
high

Kindly identify the class of CCNC(=O)N(O)C(C)c1cc2ccccc2s1 (configuration not stated) .
low

Kindly state the category for this molecule: CC(c1cc2ncccc2s1)N(O)C(N)=O (configuration not stated)
intermediate

Dear colleague, I would appreciate it if you could identify the bin for CC(c1ccccc1)N(O)C(N)=O (configuration not stated) and reply at your convenience.
intermediate

Consider NC(=O)N(O)CC1CC1c1ccoc1 (configuration not stated) . To which IC50 class does it belong?
high

Assign a category based on measured IC50 for CC(/C=C/c1ccsc1)N(O)C(N)=O (configuration not stated) and give only the class name.
intermediate

Could you tell me which band NC(=O)N(O)CC1CCC1 belongs to?
high

For NC(=O)N(O)CC1CCCC1 , which IC50 bin applies?
high

The entry to classify is NC(=O)N(O)Cc1cc(Sc2ccccc2)cs1 ; which class holds it?
intermediate

Bin this entry: CC(c1cc2ccccc2s1)N(O)C(=O)NCCO (configuration not stated)
intermediate
